Target: full-length human PKCι (Homo sapiens)
Construct: Recombinant, full-length human PKCι expressed in Sf21 insect cells is also commercially available
Experiment: PKCι IC50 IMAP assay, full-length PKCι at 150 μM ATP
Settings: read-out: IC50 in IMAP assay against full length PKCi at 150 μM ATP
observed_property: IC50

Some molecules with known IC50 results, for comparison:
Nc1cccc(C(=O)Nc2cc(-c3nc(N[C@@H]4CCNC4)c4ccncc4n3)ccn2)c1 :: 100 to 1000 nM
COc1ccc(Nc2cc(-c3nc(N4CCNCC4)c4c(C5CC5)cncc4n3)ccn2)cc1OC :: < 100 nM
c1cc(-c2nc(N3CCNCC3)c3c(C4CC4)cncc3n2)cc(NC23CC(C2)C3)n1 :: < 100 nM
O[C@@H]1Cc2ccccc2[C@H]1Nc1cc(-c2nc(N3CCNCC3)c3c(C4CC4)cncc3n2)ccn1 :: < 100 nM
O=C(NC1CCCCC1)N1CCN(c2nc(-c3ccncc3)nc3cnccc23)CC1 :: 10000 to 40000 nM
c1cc(-c2nc(N3CCNCC3)c3c(C4CC4)cncc3n2)c2c3c([nH]c2n1)CCCC3 :: 100 to 1000 nM
COc1cncc2nc(-c3ccnc(Nc4ccccc4)c3)nc(N3CCN[C@@H](CO)C3)c12 :: < 100 nM

Input: State, for full-length human PKCι (Homo sapiens), measured IC50 of the molecule listed here: Fc1cnc(Nc2cc(-c3nc(NC4CCOCC4)c4c(C5CC5)cncc4n3)ccn2)c(F)c1
Output: 10000 to 40000 nM

----------
Target: full-length human PKCι (Homo sapiens, UniProt P41743)
Construct: Recombinant, full-length human PKCι expressed in Sf21 insect cells is also commercially available; purchased; host or cells: Sf21 insect cells
Assay: PKCι IC50 IMAP assay, full-length PKCι at 150 μM ATP
Assay type: biochemical
Details: read-out: IC50 in IMAP assay against full length PKCi at 150 μM ATP
pIC50: −log10 of the molar value.
Recorded measurements of pIC50, one per entry

Some compounds with known pIC50 results, for comparison:
Fc1cc(Nc2cc(-c3nc(N4CCNCC4)c4c(C5CC5)cncc4n3)ccn2)c(F)c(F)n1 :: 6.00 to 7.00
c1cc(-c2nc(N3CCNCC3)c3c(C4CC4)cncc3n2)cc(NC2CCCCC2)n1 :: > 7.00

Now take the following compound into account.
Input: Give pIC50 for CN(c1nc(-c2ccnc(Nc3c(F)cccc3F)c2)nc2cncc(C3CC3)c12)C1CCNCC1
Output: > 7.00

----------
Target: full-length human PKCι (Homo sapiens, UniProt P41743)
Construct: Recombinant, full-length human PKCι expressed in Sf21 insect cells is also commercially available
Sequence (P41743 1-596): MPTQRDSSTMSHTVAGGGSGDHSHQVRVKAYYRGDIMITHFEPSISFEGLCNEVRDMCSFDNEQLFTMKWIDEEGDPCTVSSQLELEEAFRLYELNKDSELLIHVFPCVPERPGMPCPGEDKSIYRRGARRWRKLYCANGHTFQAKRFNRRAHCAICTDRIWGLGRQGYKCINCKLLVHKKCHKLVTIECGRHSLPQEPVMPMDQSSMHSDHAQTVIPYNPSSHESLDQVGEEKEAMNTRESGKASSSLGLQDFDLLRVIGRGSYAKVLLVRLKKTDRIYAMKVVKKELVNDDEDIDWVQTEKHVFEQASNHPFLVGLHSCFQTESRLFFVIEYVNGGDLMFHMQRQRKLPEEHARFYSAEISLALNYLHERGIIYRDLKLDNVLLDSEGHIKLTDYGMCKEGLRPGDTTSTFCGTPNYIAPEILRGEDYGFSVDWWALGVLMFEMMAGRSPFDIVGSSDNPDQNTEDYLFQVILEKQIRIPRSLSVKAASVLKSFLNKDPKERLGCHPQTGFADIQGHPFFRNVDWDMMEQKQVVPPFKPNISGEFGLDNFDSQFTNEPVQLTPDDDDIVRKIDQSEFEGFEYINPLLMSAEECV
Assay: PKCι IC50 IMAP assay, full-length PKCι at 150 μM ATP
Details: read-out: IC50 in IMAP assay against full length PKCi at 150 μM ATP
Recorded measurements of IC50, one per entry

Some compounds with known IC50 results, for comparison:
c1ccc(C[C@H]2CN(c3nc(-c4ccncc4)nc4cnccc34)CCN2)cc1 [Example 16] :: 0.1 to 1 µM
CN1CCN(c2cccc(Nc3cc(-c4nc(N5CCC5)c5c(C6CC6)cncc5n4)ccn3)c2)CC1 [Example 761] :: 0.1 to 1 µM
c1ccc(COCc2cncc3nc(-c4ccncc4)nc(N4CCNCC4)c23)cc1 [Example 140] :: 0.1 to 1 µM
Cc1cccc(Nc2cc(-c3nc(N4CCNCC4)c4c(C5CC5)cncc4n3)ccn2)c1C [Example 540] :: < 0.1 µM
Fc1cccc(F)c1Nc1cc(-c2nc(OC3CCNCC3)c3c(C4CC4)cncc3n2)ccn1 [Example 757] :: 0.1 to 1 µM
c1cc(-c2nc(N3CCNCC3)c3c(C4CC4)cncc3n2)c2cc(C3CCC3)[nH]c2n1 [Example 2146] :: < 0.1 µM
COc1cncc2nc(-c3ccnc(Nc4ccc(C5CCOCC5)cc4)c3)nc(N3CCNCC3)c12 [Example 362] :: < 0.1 µM

Input: Give IC50 for CC(=O)NC1CCN(c2nc(-c3ccnc(Nc4c(F)cccc4F)c3)nc3cncc(C4CC4)c23)C1 (centres unmarked) [Example 713]
Output: 0.1 to 1 µM
